System: murine TTC39A mRNA
Assay: Dose-dependent antisense inhibition of murine TTC39A in b.END cells
Type: cell-based, mouse
Settings: 70.0 nM, ~16 h
Oligonucleotides are written 5' to 3', each unit as a sugar letter and its base; * is a phosphorothioate linkage, no mark a phosphodiester; rarer units and linkages stand in square brackets, end groups in braces. Plain capitals give the bases only. e = 2'-O-(2-methoxyethyl) (MOE); [5mC] = 5-methylcytosine; d = 2'-deoxy (DNA)
parameter: percent inhibition of TTC39A mRNA (%)
Record the value in %, omitting the unit from your answer.

Would you please look over these solved cases?
TGCACTGGTCCAGGGCCTCA (eT*eG*e[5mC]*eA*e[5mC]*dT*dG*dG*dT*d[5mC]*d[5mC]*dA*dG*dG*dG*e[5mC]*e[5mC]*eT*e[5mC]*eA; antisense) [ISIS 474351] :: 66
TCCTTGCTCAGCAGGTCGGC (eT*e[5mC]*e[5mC]*eT*eT*dG*d[5mC]*dT*d[5mC]*dA*dG*d[5mC]*dA*dG*dG*eT*e[5mC]*eG*eG*e[5mC]; antisense) [ISIS 474366] :: 64

// TCCATGGAGTAGTTCTTGTA (eT*e[5mC]*e[5mC]*eA*eT*dG*dG*dA*dG*dT*dA*dG*dT*dT*d[5mC]*eT*eT*eG*eT*eA; antisense) [ISIS 474452] : percent inhibition of TTC39A mRNA value = 61

// CCGCACTTTGATGCCGCCCT (e[5mC]*e[5mC]*eG*e[5mC]*eA*d[5mC]*dT*dT*dT*dG*dA*dT*dG*d[5mC]*d[5mC]*eG*e[5mC]*e[5mC]*e[5mC]*eT; antisense) [ISIS 474435] : percent inhibition of TTC39A mRNA value = 52

====

Assay: Plasma NEFA and 3-HB in C57BL/6 mice
Format: in vivo, mouse
Conditions: 50 mg/kg/week, 6 weeks
Oligonucleotides are written 5' to 3', each unit as a sugar letter and its base; * is a phosphorothioate linkage, no mark a phosphodiester; rarer units and linkages stand in square brackets, end groups in braces. Plain capitals give the bases only. e = 2'-O-(2-methoxyethyl) (MOE); [5mC] = 5-methylcytosine; d = 2'-deoxy (DNA)
Below, each entry is listed with its recorded 3-HB % change over the baseline.

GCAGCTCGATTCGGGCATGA (antisense eG*e[5mC]*eA*eG*e[5mC]*dT*d[5mC]*dG*dA*dT*dT*d[5mC]*dG*dG*dG*e[5mC]*eA*eT*eG*eA) [ISIS 447118] :: +157%
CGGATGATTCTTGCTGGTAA (antisense e[5mC]*eG*eG*eA*eT*dG*dA*dT*dT*d[5mC]*dT*dT*dG*d[5mC]*dT*eG*eG*eT*eA*eA) [ISIS 447114] :: +184%
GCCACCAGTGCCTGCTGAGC (antisense eG*e[5mC]*e[5mC]*eA*e[5mC]*d[5mC]*dA*dG*dT*dG*d[5mC]*d[5mC]*dT*dG*d[5mC]*eT*eG*eA*eG*e[5mC]) [ISIS 447143] :: +41%

Moving on to the next sequence.
// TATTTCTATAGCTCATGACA (antisense eT*eA*eT*eT*eT*d[5mC]*dT*dA*dT*dA*dG*d[5mC]*dT*d[5mC]*dA*eT*eG*eA*e[5mC]*eA) [ISIS 447144] : 3-HB % change over the baseline value = +152%

====

Test system: murine TTC39C mRNA
Assay: Dose-dependent antisense inhibition of murine TTC39C in mouse primary hepatocytes
Type: cell-based
Settings: 500.0 nM, electroporation, ~16 h
Oligonucleotides are written 5' to 3', each unit as a sugar letter and its base; * is a phosphorothioate linkage, no mark a phosphodiester; rarer units and linkages stand in square brackets, end groups in braces. Plain capitals give the bases only. e = 2'-O-(2-methoxyethyl) (MOE); [5mC] = 5-methylcytosine; d = 2'-deoxy (DNA)
Below, each entry is listed with its recorded percent inhibition of TTC39C mRNA.
Write the quantity with the unit trailing the number.

ISIS 474523: 5-10-5 MOE gapmer antisense oligonucleotide targeting murine TTC39C (antisense eG*eG*eT*e[5mC]*eA*d[5mC]*d[5mC]*d[5mC]*d[5mC]*dT*dT*d[5mC]*dG*dG*d[5mC]*e[5mC]*eA*e[5mC]*eA*eA) :: 72%

Moving on to the next substance.
Simply: ISIS 474515: 5-10-5 MOE gapmer antisense oligonucleotide targeting murine TTC39C (antisense eT*e[5mC]*e[5mC]*e[5mC]*eT*dG*dA*dA*dG*d[5mC]*d[5mC]*dG*dT*dT*dG*eT*eT*eG*eA*eG) , murine TTC39C mRNA, percent inhibition of TTC39C mRNA = 56%

====

Below, each entry is listed with its recorded percent inhibition of TTC39C mRNA.
Test system: murine TTC39C mRNA
Assay: Dose-dependent antisense inhibition of murine TTC39C in mouse primary hepatocytes
Format: cell-based
Details: 8000.0 nM, electroporation, ~16 h
Oligonucleotides are written 5' to 3', each unit as a sugar letter and its base; * is a phosphorothioate linkage, no mark a phosphodiester; rarer units and linkages stand in square brackets, end groups in braces. Plain capitals give the bases only. e = 2'-O-(2-methoxyethyl) (MOE); [5mC] = 5-methylcytosine; d = 2'-deoxy (DNA)
Record the value in %, omitting the unit from your answer.

Would you please look over these solved cases?
ISIS 474523: 5-10-5 MOE gapmer antisense oligonucleotide targeting murine TTC39C (antisense eG*eG*eT*e[5mC]*eA*d[5mC]*d[5mC]*d[5mC]*d[5mC]*dT*dT*d[5mC]*dG*dG*d[5mC]*e[5mC]*eA*e[5mC]*eA*eA) :: 97
ISIS 474599: 5-10-5 MOE gapmer antisense oligonucleotide targeting murine TTC39C (antisense e[5mC]*eG*eT*eT*eG*dA*dT*dG*dT*d[5mC]*d[5mC]*dA*d[5mC]*dA*dT*eA*eG*e[5mC]*eA*e[5mC]) :: 92
ISIS 474613: 5-10-5 MOE gapmer antisense oligonucleotide targeting murine TTC39C (antisense eT*eG*e[5mC]*eT*eT*dT*dA*dA*dT*d[5mC]*d[5mC]*dA*dA*d[5mC]*dG*eA*e[5mC]*eA*eG*eA) :: 74
ISIS 474607: 5-10-5 MOE gapmer antisense oligonucleotide targeting murine TTC39C (antisense eT*e[5mC]*eA*eA*eT*d[5mC]*dA*dT*dG*d[5mC]*dT*dG*d[5mC]*dA*d[5mC]*e[5mC]*eA*eG*e[5mC]*e[5mC]) :: 94
ISIS 474617: 5-10-5 MOE gapmer antisense oligonucleotide targeting murine TTC39C (antisense eA*eG*eT*eT*e[5mC]*d[5mC]*d[5mC]*dT*dT*dA*dG*dG*dG*dA*dG*eG*e[5mC]*e[5mC]*eA*eG) :: 94

Moving on to the next substance.
// ISIS 474518: 5-10-5 MOE gapmer antisense oligonucleotide targeting murine TTC39C (antisense eG*eT*eA*eG*eT*d[5mC]*dT*dT*dT*dA*dA*dG*dT*d[5mC]*dA*eT*e[5mC]*eG*e[5mC]*eA) : percent inhibition of TTC39C mRNA value = 96

====

Tested on: murine TTC39C mRNA
Experiment: Dose-dependent antisense inhibition of murine TTC39C in mouse primary hepatocytes
Type: cell-based
Conditions: 1000.0 nM, electroporation, ~16 h
Oligonucleotides are written 5' to 3', each unit as a sugar letter and its base; * is a phosphorothioate linkage, no mark a phosphodiester; rarer units and linkages stand in square brackets, end groups in braces. Plain capitals give the bases only. e = 2'-O-(2-methoxyethyl) (MOE); [5mC] = 5-methylcytosine; d = 2'-deoxy (DNA)
Below, each entry is listed with its recorded percent inhibition of TTC39C mRNA.
Record the value in %, omitting the unit from your answer.

Would you please look over these solved cases?
ISIS 474517: 5-10-5 MOE gapmer antisense oligonucleotide targeting murine TTC39C (antisense e[5mC]*e[5mC]*eT*e[5mC]*eG*dA*dA*dT*dG*dT*d[5mC]*dA*dT*d[5mC]*dA*eT*eG*eG*e[5mC]*eG) :: 67
ISIS 474515: 5-10-5 MOE gapmer antisense oligonucleotide targeting murine TTC39C (antisense eT*e[5mC]*e[5mC]*e[5mC]*eT*dG*dA*dA*dG*d[5mC]*d[5mC]*dG*dT*dT*dG*eT*eT*eG*eA*eG) :: 62
ISIS 474521: 5-10-5 MOE gapmer antisense oligonucleotide targeting murine TTC39C (antisense eG*eG*e[5mC]*eT*eT*dT*d[5mC]*d[5mC]*dT*dA*dA*dG*dG*dA*dT*e[5mC]*e[5mC]*eA*e[5mC]*e[5mC]) :: 63

Moving on to the next substance.
// ISIS 474538: 5-10-5 MOE gapmer antisense oligonucleotide targeting murine TTC39C (antisense eT*eA*eG*e[5mC]*eA*d[5mC]*dG*d[5mC]*dA*dT*dA*dT*dG*dG*d[5mC]*eG*eG*eG*eA*e[5mC]) : percent inhibition of TTC39C mRNA value = 58
